The entries below come with measured IC50 values attached.
biological target: protein-protein interaction between Kras and SOS1 (biotin-tagged human Kras loaded with GDP, His-tagged human SOS1) (Homo sapiens (Human), UniProt P01116, G12D); experiment: Protein-protein interaction inhibition between Kras and SOS1 (KrasG12D-SOS PPI) using AlphaScreen; type: biochemical; conditions: AlphaScreen; biotin-tagged human Kras loaded with GDP, His-tagged human SOS1; read-out: KRAS G12D-SOS PPI IC50;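 further: kras produced in E. coli, Ni-coupled donor beads and streptavidin acceptor beads, excitation 680 nm with emission detected at 520–620 nm via singlet oxygen transfer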
Numbered stars: 1 amine (or outer) side, 2 acyl side, 3 side chain; on linkers, the order of the positions; unused ones are H or OH. Bridge positions count the residues as written; N and C are the ends. Square brackets hold non-standard residues; d marks the D form. Peptide text beside a SMILES is read from it. * marks the point of attachment. hPhe(3-Cl-4-CF3) = N[C@@H](CCc1ccc(C(F)(F)F)c(Cl)c1)C(=O)O; NMePhe(4-CF3) = CN[C@@H](Cc1ccc(C(F)(F)F)cc1)C(=O)O; NMedβ3hAla = C[C@H](CC(=O)[*:2])N(C)[*:1]; Pro(4,4-F2) = O=C(O)[C@@H]1CC(F)(F)CN1; NMeCha = CN[C@@H](CC1CCCCC1)C(=O)O; NMeI = CC[C@H](C)[C@H](NC)C(=O)O; NMeD = CN[C@@H](CC(=O)O)C(=O)O; NMeL = CN[C@@H](CC(C)C)C(=O)O; NMeV = CN[C@H](C(=O)O)C(C)C; NMeA = CN[C@@H](C)C(=O)O; Piperidide = C1CCN(*)CC1; Ac5c = NC1(C(=O)O)CCCC1; Aze = O=C(O)[C@@H]1CCN1; Sar = CNCC(=O)O

{"compound": "CC[C@H](C)[C@@H]1NC(=O)[C@H](CC(C)C)N(C)C(=O)C[C@@H](C(=O)N2CCCCC2)N(C)C(=O)[C@H](C(C)C)N(C)C(=O)C2(CCCC2)NC(=O)[C@@H]2CCCN2C(=O)[C@H](CCc2ccc(C(F)(F)F)c(Cl)c2)NC(=O)CN(C)C(=O)[C@H](CC2CCCCC2)N(C)C(=O)[C@@H]2CCN2C(=O)[C@H](C(C)C)N(C)C1=O [Compound 1592] ([NMeL]I[NMeV][Aze][NMeCha][Sar][hPhe(3-Cl-4-CF3)]P[Ac5c][NMeV][NMeD]-Piperidide; lactam N-11)", "IC50 (nM)": 210}
{"compound": "CC[C@H](C)[C@@H]1NC(=O)[C@H](CC(C)C)N(C)C(=O)C[C@@H](C)N(C)C(=O)[C@H]([C@@H](C)CC)N(C)C(=O)C2(CCCC2)NC(=O)[C@@H]2CC(F)(F)CN2C(=O)[C@H](CCc2ccc(C(F)(F)F)c(Cl)c2)NC(=O)CN(C)C(=O)[C@H](Cc2ccc(C(F)(F)F)cc2)N(C)C(=O)[C@@H]2CCN2C(=O)[C@H](C)N(C)C1=O [Compound 668] (cyclo([Ac5c][NMeI][NMedβ3hAla][NMeL]I[NMeA][Aze][NMePhe(4-CF3)][Sar][hPhe(3-Cl-4-CF3)][Pro(4,4-F2)]))", "IC50 (nM)": 1.9}

// data source = patent US20240148821A1
